# METHOD: Antiproliferative activity against BALB/c mouse splenocytes assessed as inhibition of [3H]thymidine incorporation into DNA at 10 uM after 24 hrs […] relative to control
# Assay type: cell-based, Splenocyte
METRIC: inhibition at 24 h, 10 µM (%)
Only the number, expressed in %, is required.

CC(C)CC(=O)O[C@@H]1OC=C(CO[C@@H]2O[C@H](CO)[C@@H](O)[C@H](O)[C@H]2O)[C@@H]2CC=C(CO)[C@@H]12    24

Ask: Tell me the measured inhibition at 24 h, 10 µM of CC(C)CC(=O)O[C@@H]1OC=C(CO)[C@@H]2CC=C(CO)[C@@H]12 , please.
Result: 25

Ask: Another: C=C1[C@H]2[C@H](OC(=O)CC(C)C)OC=C(CO[C@@H]3O[C@H](CO)[C@@H](O)[C@H](O)[C@H]3O)[C@@H]2C[C@@H]1O
Result: 16
